- target or test system: recombinant PRL-1 (Homo sapiens, UniProt Q93096)
- Construct: 6xHis (N, cleaved yes); made in house; host or cells: E. coli One Shot BL21 Star
- Sequence (Q93096 whole entry): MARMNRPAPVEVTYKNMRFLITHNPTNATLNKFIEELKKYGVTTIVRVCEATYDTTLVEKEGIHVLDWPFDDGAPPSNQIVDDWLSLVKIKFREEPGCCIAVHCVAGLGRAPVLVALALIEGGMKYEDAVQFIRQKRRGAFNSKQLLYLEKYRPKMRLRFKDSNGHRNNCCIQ
- assay procedure: In vitro phosphatase assay (DiFMUP hydrolysis), PRL-1; also: test concentration or dose not given here
- Format: biochemical
- details: FDA-approved drug screen; compared to DMSO
Where a name gives a salt, the structure may show the parent alone.
measurement name: % Phosphatase Activity (compared to DMSO) PRL-1 (%)
Numeric only. Scale: %

Some compounds with recorded % Phosphatase Activity (compared to DMSO) PRL-1:
compound	unit symbol	measured value
COCCCOc1ccnc(C[S+]([O-])c2nc3ccccc3[n-]2)c1C.[Na+] (centres unmarked) [Rebeprazole sodium]	%	97
CCCOc1ccc(C(=O)OCCN(CC)CC)cc1N [Proparacaine HCl]	%	78
CC(C)(C)NCC(O)COc1cccc2c1CCC(=O)N2 (centres unmarked) [Carteolol HCl]	%	100
C[C@@H]1C[C@H]2[C@@H]3CCC4=CC(=O)C=C[C@]4(C)[C@@]3(F)[C@@H](O)C[C@]2(C)[C@@]1(O)C(=O)CO [Dexamethasone (DHAP)]	%	99
C[C@H]1COc2c(N3CCN(C)CC3)c(F)cc3c(=O)c(C(=O)O)cn1c23 [Levofloxacin]	%	264

Ask: So what's the measured % Phosphatase Activity (compared to DMSO) PRL-1 for this one? CC1(C)[C@@H](OC(=O)CCC(=O)O)CC[C@]2(C)[C@H]3C(=O)C=C4[C@@H]5C[C@@](C)(C(=O)O)CC[C@]5(C)CC[C@@]4(C)[C@]3(C)CC[C@@H]12 [Carbenoxolone Sodium]
Reply: 85

Ask: So what's the measured % Phosphatase Activity (compared to DMSO) PRL-1 for this one? O=C(O)CCc1nc2ccccc2[nH]1 [Procodazole]
Reply: 98

Ask: So what's the measured % Phosphatase Activity (compared to DMSO) PRL-1 for this one? CCOC(=O)N1CCC(=C2c3ccc(Cl)cc3CCc3cccnc32)CC1 [Loratadine]
Reply: 89

* * *

Each entry below carries its reported % Phosphatase Activity (compared to DMSO) PRL-3.
- target or test system: recombinant PRL-3 (Homo sapiens)
- Construct: 6xHis (N, cleaved yes); made in house; host or cells: E. coli One Shot BL21 Star
- Sequence (O75365 whole entry): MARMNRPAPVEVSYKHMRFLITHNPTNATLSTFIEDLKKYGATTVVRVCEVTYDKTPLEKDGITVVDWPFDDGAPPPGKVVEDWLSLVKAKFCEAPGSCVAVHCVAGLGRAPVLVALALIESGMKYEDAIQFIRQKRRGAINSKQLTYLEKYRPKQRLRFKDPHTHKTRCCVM
- assay procedure: In vitro phosphatase assay (DiFMUP hydrolysis), PRL-3; also: test concentration or dose not given here
- Format: biochemical
- details: FDA-approved drug screen; compared to DMSO
Structures can show the parent of a compound that is named as a salt.
Numeric only. Scale: %

Some compounds with recorded % Phosphatase Activity (compared to DMSO) PRL-3:
compound	target or test system	unit symbol	measured value
C[C@H]1c2cccc(O)c2C(=O)C2=C(O)[C@]3(O)C(=O)C(C(N)=O)=C(O)[C@@H](N(C)C)[C@@H]3[C@@H](O)[C@@H]21 [Doxycycline HCl]	recombinant PRL-3 (Homo sapiens)	%	73
COc1ccc(C2CNC(=O)C2)cc1OC1CCCC1 (stereo not shown)	recombinant PRL-3 (Homo sapiens)	%	77
N=C(N)c1ccc2cc(OC(=O)c3ccc(N=C(N)N)cc3)ccc2c1 [Nafamostat Mesylate]	recombinant PRL-3 (Homo sapiens)	%	67
CN1CCC(=C2c3ccccc3C=Cc3ccccc32)CC1 [Cyproheptadine hydrochloride]	recombinant PRL-3 (Homo sapiens)	%	84
COc1ccc(C[C@@H](C)NC[C@H](O)c2ccc(O)c(NC=O)c2)cc1.COc1ccc(C[C@@H](C)NC[C@H](O)c2ccc(O)c(NC=O)c2)cc1.O=C(O)/C=C/C(=O)O [Formoterol Hemifumarate]	recombinant PRL-3 (Homo sapiens)	%	91

Ask: So what's the measured % Phosphatase Activity (compared to DMSO) PRL-3 for this one? C[C@@H](CN1CC(=O)NC(=O)C1)N1CC(=O)NC(=O)C1.Cl [Dexrazoxane HCl (ICRF-187, ADR-529)]
Reply: 79

Ask: So what's the measured % Phosphatase Activity (compared to DMSO) PRL-3 for this one? CCN(CC)CCOc1ccc(C(=C(Cl)c2ccccc2)c2ccccc2)cc1 [Clomifene citrate]
Reply: 96
